read-out: Cytochrome P450 3A7 (Homo sapiens) (UniProt P24462); test: LTEA_HepaRG_CYP3A7: Life Technologies and Expression Analysis (LTEA) Assay for CYP3A7 using HepaRG (AID 2283492); settings: mRNA level, 48 h; actives raise or lower the signal
Sequence (P24462 whole entry, looked up): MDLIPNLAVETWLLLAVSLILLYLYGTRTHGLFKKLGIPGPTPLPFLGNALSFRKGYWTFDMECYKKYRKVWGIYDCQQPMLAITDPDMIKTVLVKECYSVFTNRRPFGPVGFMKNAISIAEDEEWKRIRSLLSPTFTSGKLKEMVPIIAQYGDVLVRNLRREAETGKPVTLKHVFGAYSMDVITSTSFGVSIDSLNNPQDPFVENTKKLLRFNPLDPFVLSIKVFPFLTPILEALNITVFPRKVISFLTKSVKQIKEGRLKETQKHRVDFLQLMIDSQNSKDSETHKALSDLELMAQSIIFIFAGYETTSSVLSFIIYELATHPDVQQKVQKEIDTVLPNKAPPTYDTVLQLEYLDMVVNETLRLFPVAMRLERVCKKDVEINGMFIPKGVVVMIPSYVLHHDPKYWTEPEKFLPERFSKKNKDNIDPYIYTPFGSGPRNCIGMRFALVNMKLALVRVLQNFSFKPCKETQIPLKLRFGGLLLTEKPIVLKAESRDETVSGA
Activity calls are given as the source filed them. How the source made its calls: active means hit-call score of the fitted dose curve at least 0.9, where 1 is the maximum; inactive means score below 0.9.
Result type: outcome

> print(dat)
                                   compound  result.type  test.value
1                              CCOCCOC(C)=O      outcome    inactive
2  CC(C)C(=O)OCC(C)(C)C(OC(=O)C(C)C)C(C)C (stereo not drawn)      outcome    inactive
3                              CCCN(CCC)N=O      outcome    inactive

---

read-out: Plasminogen activator inhibitor-1 (PAI1), SERPINE1 (gene 5054); test: BSK_hDFCGF_PAI1: BioMAP Diversity Plus: hDFCGF Assay for Plasminogen activator inhibitor-1 (PAI1) Biomarker Activity (AID 2283066); details: primary human foreskin fibroblasts; actives raise or lower the signal
Active and inactive are the calls of the source. How the source made its calls: active means hit-call score of the fitted dose curve at least 0.9, where 1 is the maximum; inactive means score below 0.9.
Choose one outcome from this list and give only that: active, inactive

> print(dat)
                                  structure     cat
1  Oc1ccc(C(c2ccc(O)cc2)(C(F)(F)F)C(F)(F)F)cc1  active

Prompt: Assay result, entry O=C(NC(=O)c1cc(F)c(F)cc1Cl)Nc1cc(F)ccc1N1CCC(C(=O)O)CC1 — outcome?
Response: inactive

Prompt: Assay result, entry CO/C=C(/C(=O)OC)c1ccccc1COc1cccc(C(F)(F)F)n1 — outcome?
Response: active

Prompt: Assay result, entry COc1ccc(O)c(C(C)(C)C)c1 — outcome?
Response: inactive

Prompt: Assay result, entry CC(C)(O)C(=O)Nc1ccc([N+](=O)[O-])c(C(F)(F)F)c1 — outcome?
Response: inactive

Prompt: Assay result, entry O=S(=O)(O)C(F)(F)C(F)(F)C(F)(F)C(F)(F)C(F)(F)C(F)(F)F — outcome?
Response: inactive

Prompt: Assay result, entry Cc1cc2c3c(c1)C(c1ccccc1)=N[C@@H](NC(=O)c1ccncc1)C(=O)N3CC2 — outcome?
Response: active

Prompt: Assay result, entry N#Cc1ccc(N(CC(N)=O)CC(F)(F)F)cc1C(F)(F)F — outcome?
Response: inactive

Prompt: Assay result, entry CC#Cc1cc(C)nc(Nc2ccccc2)n1 — outcome?
Response: inactive

Prompt: Assay result, entry COS(=O)(=O)OC — outcome?
Response: inactive

---

read-out: TIMP metallopeptidase inhibitor 1 (TIMP1), TIMP1 (gene 7076); test: BSK_hDFCGF_TIMP1: BioMAP Diversity Plus: hDFCGF Assay for TIMP metallopeptidase inhibitor 1 (TIMP1) Biomarker Activity (AID 2283062); details: primary human foreskin fibroblasts; actives raise or lower the signal
Calls of active or inactive are those of the source. The calls were made as follows: active = hit-call score of the fitted dose curve at least 0.9, where 1 is the maximum; inactive = score below 0.9.
Choose one outcome from this list and give only that: active, inactive

These solved cases illustrate the format of a correct answer.
> print(dat)
                                   compound       cat
1                                 C=CC(N)=O  inactive
2  N#Cc1ccc(N(CC(N)=O)CC(F)(F)F)cc1C(F)(F)F  inactive
3   CCC(C)(CC)c1cc(NC(=O)c2c(OC)cccc2OC)on1  inactive

Prompt: Assay result, entry CC(C)C(=O)OCC(C)(C)C(OC(=O)C(C)C)C(C)C (configuration not stated) — outcome?
Response: inactive

Prompt: Assay result, entry Clc1ccc(C(c2ccccc2Cl)C(Cl)(Cl)Cl)cc1 (configuration not stated) — outcome?
Response: active

Prompt: Assay result, entry CCC(C)c1cc([N+](=O)[O-])cc([N+](=O)[O-])c1O (configuration not stated) — outcome?
Response: inactive

---

experiment: BSK_CASM3C_SRB: Viability Assessment in the BioMAP Diversity Plus: CASM3C Assay (AID 2283050); details: primary human coronary artery smooth muscle cells;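 further: total protein by SRB staining as cytotoxicity measure in parallel cultures; cells exposed to compound for 24 h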
Active and inactive are the calls of the source. The calls were made as follows: active = hit-call score of the fitted dose curve at least 0.9, where 1 is the maximum; inactive = score below 0.9.
Choose one outcome from this list and give only that: true (1) for active, false (0) for inactive

These solved cases illustrate the format of a correct answer.
> print(dat)
                                    molecule        cat
 1  ClC1=C(Cl)[C@]2(Cl)[C@@H]3[C@H]4C[C@H]([C@@H]5O[C@H]45)[C@@H]3[C@@]1(Cl)C2(Cl)Cl  false (0)
 2  Clc1ccc(C(c2ccccc2Cl)C(Cl)(Cl)Cl)cc1 (configuration not stated)   true (1)
 3                           Oc1ccc(Cl)cc1Cl  false (0)
 4      CCCCCCCCOC(=O)c1ccccc1C(=O)OCCCCCCCC  false (0)
 5  O=C(NC(=O)c1c(F)cccc1F)Nc1cc(Cl)c(OC(F)(F)C(F)F)c(Cl)c1  false (0)
 6    CCOC(=O)C(O)(c1ccc(Cl)cc1)c1ccc(Cl)cc1   true (1)
 7                   COc1ccc(O)c(C(C)(C)C)c1  false (0)
 8                     CCSC(=O)N(CC)C1CCCCC1  false (0)
 9                                  Nn1cnnc1  false (0)
10                c1cc2ccc3cccc4ccc(c1)c2c34  false (0)

Prompt: Assay result, entry CCC(C)(c1ccc(O)cc1)c1ccc(O)cc1 — outcome?
Response: false (0)

Prompt: Assay result, entry CC(C)(c1ccccc1)c1ccc(O)cc1 — outcome?
Response: true (1)

Prompt: Assay result, entry CC#Cc1cc(C)nc(Nc2ccccc2)n1 — outcome?
Response: false (0)

Prompt: Assay result, entry CCOP(=S)(OCC)SCSC(C)(C)C — outcome?
Response: false (0)

Prompt: Assay result, entry Cc1ccccc1[N+](=O)[O-] — outcome?
Response: false (0)

Prompt: Assay result, entry O=NN(c1ccccc1)c1ccccc1 — outcome?
Response: false (0)

Prompt: Assay result, entry Clc1ccc(Cl)cc1 — outcome?
Response: false (0)

---

read-out: growth arrest and DNA damage 45 (GADD45A), GADD45A (gene 1647); test: LTEA_HepaRG_GADD45A: Life Technologies and Expression Analysis (LTEA) Assay for growth arrest and DNA damage 45 (GADD45A) using HepaRG (AID 2283458); settings: mRNA level, 48 h; actives raise or lower the signal
The source made the active and inactive calls. How the source made its calls: active means hit-call score of the fitted dose curve at least 0.9, where 1 is the maximum; inactive means score below 0.9.
Choose one outcome from this list and give only that: Yes for active, No for inactive

These solved cases illustrate the format of a correct answer.
> print(dat)
                                  compound  cat
1  CCC(C)(CC)c1cc(NC(=O)c2c(OC)cccc2OC)on1   No
2              Oc1c(Cl)c(Cl)c(Cl)c(Cl)c1Cl  Yes
3                      c1ccc(-c2ccccc2)cc1   No

Prompt: Assay result, entry Clc1ccc(C(c2ccccc2Cl)C(Cl)(Cl)Cl)cc1 (configuration not stated) — outcome?
Response: No

Prompt: Assay result, entry C1CC2OC2CC1C1CO1 (configuration not stated) — outcome?
Response: No

Prompt: Assay result, entry CC#Cc1cc(C)nc(Nc2ccccc2)n1 — outcome?
Response: No

Prompt: Assay result, entry CCCCCCOC(=O)c1ccccc1C(=O)OCCCCCC — outcome?
Response: No

Prompt: Assay result, entry CCC(=O)O[C@H]1CC[C@H]2[C@@H]3CCC4=CC(=O)CC[C@]4(C)[C@H]3CC[C@]12C — outcome?
Response: No

Prompt: Assay result, entry CC(c1ccc(O)cc1)(c1ccc(O)cc1)c1ccc(O)cc1 — outcome?
Response: No

Prompt: Assay result, entry Clc1ccc(C(Cl)(Cl)Cl)cc1 — outcome?
Response: No

Prompt: Assay result, entry Cc1cc(O)ccc1Cl — outcome?
Response: No

Prompt: Assay result, entry CN(C)CCO — outcome?
Response: No

Prompt: Assay result, entry CCCN(CCC)N=O — outcome?
Response: No

Prompt: Assay result, entry CCCCCCCCCc1ccc(O)cc1 — outcome?
Response: No

Prompt: Assay result, entry c1cc2ccc3cccc4ccc(c1)c2c34 — outcome?
Response: No

Prompt: Assay result, entry Cc1cccc([N+](=O)[O-])c1 — outcome?
Response: No

Prompt: Assay result, entry Nn1cnnc1 — outcome?
Response: No

---

read-out: Forkhead box O3 (FOXO3), FOXO3 (gene 2309); test: LTEA_HepaRG_FOXO3: Life Technologies and Expression Analysis (LTEA) Assay for Forkhead box O3 (FOXO3) using HepaRG (AID 2283459); conditions: mRNA level, 48 h; actives raise or lower the signal
The source made the active and inactive calls. Rule for the calls: active = hit-call score of the fitted dose curve at least 0.9, where 1 is the maximum; inactive = score below 0.9.
Choose one outcome from this list and give only that: class 1 for active, class 0 for inactive

These solved cases illustrate the format of a correct answer.
> print(dat)
                                   compound      cat
1            CCC(C)(c1ccc(O)cc1)c1ccc(O)cc1  class 0
2  CCC(=O)O[C@H]1CC[C@H]2[C@@H]3CCC4=CC(=O)CC[C@]4(C)[C@H]3CC[C@]12C  class 0
3                            Cc1cc(O)ccc1Cl  class 0
4                  CCOP(=S)(OCC)SCSC(C)(C)C  class 0
5  CCC(C)c1cc([N+](=O)[O-])cc([N+](=O)[O-])c1O (stereo unspecified)  class 1

Prompt: Assay result, entry O=C(NC(=O)c1c(F)cccc1F)Nc1cc(Cl)c(OC(F)(F)C(F)F)c(Cl)c1 — outcome?
Response: class 0

Prompt: Assay result, entry C[C@]12CCC(=O)C=C1CC[C@@H]1[C@@H]2CC[C@@]2(C)[C@H]1CC[C@]2(C)O — outcome?
Response: class 0

Prompt: Assay result, entry CC(C)C(=O)OCC(C)(C)C(OC(=O)C(C)C)C(C)C (stereo unspecified) — outcome?
Response: class 0

Prompt: Assay result, entry ClC1=C(Cl)[C@]2(Cl)[C@@H]3[C@@H]4C[C@@H]([C@H]5O[C@@H]45)[C@@H]3[C@@]1(Cl)C2(Cl)Cl — outcome?
Response: class 1

Prompt: Assay result, entry Cc1ccccc1[N+](=O)[O-] — outcome?
Response: class 0
